biological target: Receptor tyrosine-protein kinase erbB-2 (Homo sapiens); experiment: BT474 Cellular Assay (HER2 Inhibition)
Sequence (P04626 whole entry): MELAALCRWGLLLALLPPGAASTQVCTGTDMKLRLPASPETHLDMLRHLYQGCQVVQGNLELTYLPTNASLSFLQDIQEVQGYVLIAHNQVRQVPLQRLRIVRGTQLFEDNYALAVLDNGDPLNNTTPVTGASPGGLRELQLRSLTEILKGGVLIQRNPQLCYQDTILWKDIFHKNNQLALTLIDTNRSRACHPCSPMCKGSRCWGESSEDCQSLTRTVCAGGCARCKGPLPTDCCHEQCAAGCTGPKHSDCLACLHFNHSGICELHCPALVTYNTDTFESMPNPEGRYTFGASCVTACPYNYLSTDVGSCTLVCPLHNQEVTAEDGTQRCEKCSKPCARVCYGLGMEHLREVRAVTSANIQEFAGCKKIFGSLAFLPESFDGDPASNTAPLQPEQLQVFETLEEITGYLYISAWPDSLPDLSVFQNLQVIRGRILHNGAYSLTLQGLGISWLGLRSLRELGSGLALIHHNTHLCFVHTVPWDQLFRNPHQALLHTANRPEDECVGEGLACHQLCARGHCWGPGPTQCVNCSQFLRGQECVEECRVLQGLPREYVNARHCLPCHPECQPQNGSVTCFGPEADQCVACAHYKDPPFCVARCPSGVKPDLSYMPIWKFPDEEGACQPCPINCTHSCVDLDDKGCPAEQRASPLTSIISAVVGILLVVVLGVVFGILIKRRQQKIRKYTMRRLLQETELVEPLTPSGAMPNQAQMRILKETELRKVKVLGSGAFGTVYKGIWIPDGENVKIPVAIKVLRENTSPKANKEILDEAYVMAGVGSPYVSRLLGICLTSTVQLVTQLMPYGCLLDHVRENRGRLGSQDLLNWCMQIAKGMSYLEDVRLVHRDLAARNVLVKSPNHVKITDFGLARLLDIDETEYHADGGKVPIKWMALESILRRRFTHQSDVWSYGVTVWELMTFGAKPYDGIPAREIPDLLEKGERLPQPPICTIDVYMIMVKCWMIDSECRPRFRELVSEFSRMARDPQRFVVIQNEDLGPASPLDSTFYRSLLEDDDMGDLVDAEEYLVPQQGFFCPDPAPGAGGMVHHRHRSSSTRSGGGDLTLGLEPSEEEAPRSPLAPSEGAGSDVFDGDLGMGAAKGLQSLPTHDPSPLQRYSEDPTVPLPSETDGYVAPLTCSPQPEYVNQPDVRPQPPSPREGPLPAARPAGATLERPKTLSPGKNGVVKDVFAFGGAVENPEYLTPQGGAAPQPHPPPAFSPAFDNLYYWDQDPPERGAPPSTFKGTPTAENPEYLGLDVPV
Test Readout: IC50 (nM)
The figure you give is taken to be in nM; do not add the unit.

query: Indicate the recorded IC50 value for this compound: Cc1cc(Nc2ncnc3ccc(OC(F)(F)F)c(O[C@H]4CCN(C)CC4(F)F)c23)ccc1Oc1cc2ncnn2cn1
result: 145

Origin of values: BindingDB's records for patent US11723908
